tested on: NCI-H441; assay: Antiproliferative activity against human NCI-H441 cells harboring KRAS G12V mutant assessed as reduction in cell viability incubated for 72 hrs by MTT assay; format: functional, cell-based; details: NCI-H441, 72 h
measurement.name: pIC50
Answers are plain numbers, as −log10 of the molar value.

input: Need pIC50, item N#Cc1c(N)sc2c1CCCC2
output: 4.80

###

test: Oral bioavailability in CD-1 mouse; type: ADME, organism-based; conditions: in vivo
measurement.name: bioavailability (%)
Numbers only, in %.

input: Need bioavailability, item Cc1c(C#N)cccc1[C@@H](C)Nc1nnc(C)c2cnc(N3CCOCC3)cc12
output: 38
